- Experiment notes: recombinant barcode read abundance after kanamycin selection (control-corrected) (log10(CPM+1)); higher = more efficient recombination; sequences stand for … in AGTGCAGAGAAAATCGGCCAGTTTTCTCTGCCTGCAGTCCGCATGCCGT…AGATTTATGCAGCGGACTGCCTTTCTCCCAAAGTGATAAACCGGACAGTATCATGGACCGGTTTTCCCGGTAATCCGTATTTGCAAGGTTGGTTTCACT; site = the 11-nt target;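 note: IS621 recombinase and bridge RNA in Escherichia coli cells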
Where recombinant barcode read abundance (log10) equals or exceeds 0.2, the correct label is criterion met; where it does not, the label is criterion not met.

Hello, I need to know if GCGATGTCTTGGGTTCTAACCTGTTGCCT (site GCGATGTCTAG) has measured recombinant barcode read abundance (log10) not below 0.2. Thanks!
criterion met

Hello, I need to know if ACGCGAGCTTGGGTTCTAACCTGTTGCCG (site ACGCGAGCTCC) has measured recombinant barcode read abundance (log10) not below 0.2. Thanks!
criterion met

Hello, I need to know if TTCTCTTCTTGGGTTCTAACCTGTTGCCT (site TTCTGTTCTAG) has measured recombinant barcode read abundance (log10) not below 0.2. Thanks!
criterion not met

Hello, I need to know if CACAGGCCTTGGGTTCTAACCTGTTGCAG (site CACAGGCCTCT) has measured recombinant barcode read abundance (log10) not below 0.2. Thanks!
criterion met

Hello, I need to know if CTCATTCCTTGGGTTCTAACCTGTTGCGT (site CTCATTCCTAA) has measured recombinant barcode read abundance (log10) not below 0.2. Thanks!
criterion not met

Hello, I need to know if ACCAATCCTTGGGTTCTAACCTGTTGCCT (site ACCAATGCTAG) has measured recombinant barcode read abundance (log10) not below 0.2. Thanks!
criterion not met

Hello, I need to know if CTAGCGACTTGGGTTCTAACCTGTTGCCG (site ACGCTATCTAA) has measured recombinant barcode read abundance (log10) not below 0.2. Thanks!
criterion not met

Hello, I need to know if CATAGTCCTTGGGTTCTAACCTGTTGCCA (site GTACAATCTCT) has measured recombinant barcode read abundance (log10) not below 0.2. Thanks!
criterion not met

Hello, I need to know if TTAGAGCCTTGGGTTCTAACCTGTTGCCT (site TTAGAGCCTAG) has measured recombinant barcode read abundance (log10) not below 0.2. Thanks!
criterion met

Hello, I need to know if GACGGATCTTGGGTTCTAACCTGTTGCAT (site GACGGATCTAG) has measured recombinant barcode read abundance (log10) not below 0.2. Thanks!
criterion met

Hello, I need to know if CTGGGCACTTGGGTTCTAACCTGTTGCCT (site CGGGGCACTAG) has measured recombinant barcode read abundance (log10) not below 0.2. Thanks!
criterion not met

Hello, I need to know if GAAATGTCTTGGGTTCTAACCTGTTGCCT (site GTAATGTCTAG) has measured recombinant barcode read abundance (log10) not below 0.2. Thanks!
criterion met

Hello, I need to know if TAGTGTTCTTGGGTTCTAACCTGTTGCCT (site TAGTGTGCTAG) has measured recombinant barcode read abundance (log10) not below 0.2. Thanks!
criterion not met

Hello, I need to know if GAGCTTACTTGGGTTCTAACCTGTTGCCT (site GTGCTTACTAG) has measured recombinant barcode read abundance (log10) not below 0.2. Thanks!
criterion not met

Hello, I need to know if TCCAAACCTTGGGTTCTAACCTGTTGCAG (site TCCAAGCCTCT) has measured recombinant barcode read abundance (log10) not below 0.2. Thanks!
criterion not met

Hello, I need to know if TATCCGACTTGGGTTCTAACCTGTTGCCG (site TATCCGACTTG) has measured recombinant barcode read abundance (log10) not below 0.2. Thanks!
criterion not met

Hello, I need to know if ACAGGTACTTGGGTTCTAACCTGTTGCCT (site TCAGGTACTAG) has measured recombinant barcode read abundance (log10) not below 0.2. Thanks!
criterion met

Hello, I need to know if GGATTCACTTGGGTTCTAACCTGTTGCCA (site GGATTCACTTG) has measured recombinant barcode read abundance (log10) not below 0.2. Thanks!
criterion met

Hello, I need to know if TAGAATACTTGGGTTCTAACCTGTTGCGG (site TAGAATACTCC) has measured recombinant barcode read abundance (log10) not below 0.2. Thanks!
criterion met

Hello, I need to know if CCAAGATCTTGGGTTCTAACCTGTTGCCT (site CAAAGATCTAG) has measured recombinant barcode read abundance (log10) not below 0.2. Thanks!
criterion not met

Hello, I need to know if CTAAGCTCTTGGGTTCTAACCTGTTGCTA (site CTAAGCTCTAA) has measured recombinant barcode read abundance (log10) not below 0.2. Thanks!
criterion not met

Hello, I need to know if GCGTCACCTTGGGTTCTAACCTGTTGCCT (site GCGTCACCTAG) has measured recombinant barcode read abundance (log10) not below 0.2. Thanks!
criterion met

Hello, I need to know if TAGGTGGCTTGGGTTCTAACCTGTTGCCT (site TGGGCGGCTAG) has measured recombinant barcode read abundance (log10) not below 0.2. Thanks!
criterion not met

Hello, I need to know if AGTATGACTTGGGTTCTAACCTGTTGCCT (site CGTATGACTAG) has measured recombinant barcode read abundance (log10) not below 0.2. Thanks!
criterion met

Hello, I need to know if TCCAAACCTTGGGTTCTAACCTGTTGCAG (site TCCAACCCTCT) has measured recombinant barcode read abundance (log10) not below 0.2. Thanks!
criterion not met

Hello, I need to know if CAGCCTTCTTGGGTTCTAACCTGTTGCTT (site CATCCTCCTAA) has measured recombinant barcode read abundance (log10) not below 0.2. Thanks!
criterion not met

Hello, I need to know if AACTCTCCTTGGGTTCTAACCTGTTGCAT (site AACTATCCTAT) has measured recombinant barcode read abundance (log10) not below 0.2. Thanks!
criterion not met

Hello, I need to know if CGGCACACTTGGGTTCTAACCTGTTGCCT (site CGGCACACTAG) has measured recombinant barcode read abundance (log10) not below 0.2. Thanks!
criterion met

Hello, I need to know if GGGGACCCTTGGGTTCTAACCTGTTGCGA (site GGGGACCCTTC) has measured recombinant barcode read abundance (log10) not below 0.2. Thanks!
criterion met

Hello, I need to know if CGTTAACCTTGGGTTCTAACCTGTTGCGT (site CGTGAACCTAC) has measured recombinant barcode read abundance (log10) not below 0.2. Thanks!
criterion not met

Hello, I need to know if GCGACTCCTTGGGTTCTAACCTGTTGCAT (site GCGCCTCCTAT) has measured recombinant barcode read abundance (log10) not below 0.2. Thanks!
criterion not met

Hello, I need to know if TTGGAGGCTTGGGTTCTAACCTGTTGCCT (site TTGGAGGCTAG) has measured recombinant barcode read abundance (log10) not below 0.2. Thanks!
criterion met

Hello, I need to know if AACTTGACTTGGGTTCTAACCTGTTGCCT (site AATTTGACTAG) has measured recombinant barcode read abundance (log10) not below 0.2. Thanks!
criterion met

Hello, I need to know if AGAATGTCTTGGGTTCTAACCTGTTGCCT (site AGAATGTCTAG) has measured recombinant barcode read abundance (log10) not below 0.2. Thanks!
criterion met

Hello, I need to know if CGGAATCCTTGGGTTCTAACCTGTTGCCT (site CGGAATCCTAT) has measured recombinant barcode read abundance (log10) not below 0.2. Thanks!
criterion not met

Hello, I need to know if ACGATATCTTGGGTTCTAACCTGTTGCCT (site AAGATATCTAG) has measured recombinant barcode read abundance (log10) not below 0.2. Thanks!
criterion not met
